Data origin, for the record: ChEMBL document CHEMBL3137667

# condition: human;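 note: human cholestatic liver injury, shown by histopathology or by peak ALT or AST elevation over alkaline phosphatase ratio below 2, value counts indexed literature reports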

>  <compound>
OCCN1CCN(CCCN2c3ccccc3Sc3ccc(Cl)cc32)CC1 [PERPHENAZINE]

>  <Hepatotoxicity (choleostasis)>
4

$$$$
>  <compound>
CC(=O)Nc1nnc(S(N)(=O)=O)s1 [ACETAZOLAMIDE]

>  <Hepatotoxicity (choleostasis)>
1

$$$$
>  <compound>
NS(=O)(=O)c1cc2c(cc1Cl)NCNS2(=O)=O [HYDROCHLOROTHIAZIDE]

>  <Hepatotoxicity (choleostasis)>
1

$$$$
>  <compound>
CN1c2c(oc(=O)n(-c3ccccn3)c2=O)-c2ccccc2S1(=O)=O [DROXICAM]

>  <Hepatotoxicity (choleostasis)>
6

$$$$
>  <compound>
N[C@@H]1[C@H]2CN(c3nc4c(cc3F)c(=O)c(C(=O)O)cn4-c3ccc(F)cc3F)C[C@@H]12 [TROVAFLOXACIN]

>  <Hepatotoxicity (choleostasis)>
1

$$$$
>  <compound>
Nc1ccc(S(N)(=O)=O)cc1 [SULFANILAMIDE]

>  <Hepatotoxicity (choleostasis)>
1

$$$$
>  <compound>
O=C(CCCCC(=O)Nc1c(I)cc(I)c(C(=O)O)c1I)Nc1c(I)cc(I)c(C(=O)O)c1I [IODIPAMIDE]

>  <Hepatotoxicity (choleostasis)>
0

$$$$
>  <compound>
COc1ccc(Cl)cc1C(=O)NCCc1ccc(S(=O)(=O)NC(=O)NC2CCCCC2)cc1 [GLYBURIDE]

>  <Hepatotoxicity (choleostasis)>
10

$$$$
>  <compound>
CCOC(=O)Nc1ccc(NCc2ccc(F)cc2)nc1N [FLUPIRTINE]

>  <Hepatotoxicity (choleostasis)>
0

$$$$
